# System: NCI-H1437
# protocol: relative viability (nuclei count vs DMSO), 5 days (fraction); higher = more cells survive
# conditions: first compound 1.265 µM
Would you kindly list relative viability for each of these compounds?
One number for each entry.

| compound | relative viability |
| --- | --- |
| Cc1sc2c(c1C)C(c1ccc(Cl)cc1)=N[C@@H](CC(=O)OC(C)(C)C)c1nnc(C)n1-2 [JQ1] + O=C(CCCCCCC(=O)Nc1ccccc1)NO [Vorinostat] (partner 1 µM) | 0.395 |
| Cc1sc2c(c1C)C(c1ccc(Cl)cc1)=N[C@@H](CC(=O)OC(C)(C)C)c1nnc(C)n1-2 [JQ1] + Cc1nc(Nc2ncc(C(=O)Nc3c(C)cccc3Cl)s2)cc(N2CCN(CCO)CC2)n1 [Dasatinib] (partner 0.075 µM) | 0.217 |
| Cc1sc2c(c1C)C(c1ccc(Cl)cc1)=N[C@@H](CC(=O)OC(C)(C)C)c1nnc(C)n1-2 [JQ1] + Nc1nc2[nH]cc(CCc3ccc(C(=O)N[C@@H](CCC(=O)O)C(=O)O)cc3)c2c(=O)[nH]1 [Pemetrexed] (partner 0.2 µM) | 0.201 |

Turning now to a further record.
Qu. Quick check: relative viability of Cc1sc2c(c1C)C(c1ccc(Cl)cc1)=N[C@@H](CC(=O)OC(C)(C)C)c1nnc(C)n1-2 [JQ1] + NC(=O)Nc1cc(-c2cccc(F)c2)sc1C(=O)N[C@H]1CCCNC1 [AZD7762] (partner 0.2 µM) ?
Ans. 0.657

Entry source: the supplement of paper PMC10307832
